Data provenance is patent US20220273659A1.

# test_system: CDK6 (Homo sapiens, UniProt Q00534)
# Sequence (Q00534 whole entry): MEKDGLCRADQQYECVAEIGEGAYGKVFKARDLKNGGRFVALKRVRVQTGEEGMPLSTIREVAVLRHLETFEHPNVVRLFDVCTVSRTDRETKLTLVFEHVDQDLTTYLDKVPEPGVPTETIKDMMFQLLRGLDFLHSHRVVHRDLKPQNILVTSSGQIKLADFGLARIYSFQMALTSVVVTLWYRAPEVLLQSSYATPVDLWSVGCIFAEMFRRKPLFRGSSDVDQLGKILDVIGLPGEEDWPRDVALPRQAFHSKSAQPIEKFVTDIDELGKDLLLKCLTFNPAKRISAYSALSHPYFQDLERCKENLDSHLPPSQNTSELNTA
# Sequence (P24385 whole entry partner): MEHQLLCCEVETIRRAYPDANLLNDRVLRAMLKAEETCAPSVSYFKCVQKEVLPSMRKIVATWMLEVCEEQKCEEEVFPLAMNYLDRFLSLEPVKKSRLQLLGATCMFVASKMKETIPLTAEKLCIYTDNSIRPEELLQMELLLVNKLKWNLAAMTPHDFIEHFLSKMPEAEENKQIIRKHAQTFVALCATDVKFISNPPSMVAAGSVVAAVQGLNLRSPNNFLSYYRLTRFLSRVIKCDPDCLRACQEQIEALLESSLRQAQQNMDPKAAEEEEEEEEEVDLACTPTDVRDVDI
# procedure_details: In vitro kinase inhibition IC50, luminescence (ADP Glo), retinoblastoma substrate
# measurement_conditions: read-out: CDK6/D1 IC50
pIC50: −log10 of the molar value.
property: pIC50

These recorded examples may help you get a feel for the data.
| molecule | property | recorded_value |
| --- | --- | --- |
| N#Cc1cc2cnc(Nc3ccc4c(c3)CNCCC4)nc2n(C2CCCC2)c1=O | pIC50 | 7.82 |
| CN1CCN(c2ccc(Nc3ncc4cc(C#N)c(=O)n([C@H]5CC[C@H](C)CC5)c4n3)cc2)CC1 | pIC50 | 9.00 |
| N#Cc1cc2cnc(Nc3cnn(C4CCNCC4)c3)nc2n(C2CCCC2)c1=O | pIC50 | 7.77 |

P = N#Cc1cc2cnc(Nc3ccc(N4CCNCC4)c(F)c3)nc2n(C2CCCC2)c1=O
Q = CN(C)CC(=O)N1CCc2cc(Nc3ncc4cc(C#N)c(=O)n(C5CCCC5)c4n3)ccc2C1
R = N#Cc1cc2cnc(NC3CCN(S(=O)(=O)C(F)F)CC3)nc2n(C2CCCC2)c1=O
S = CN(C)CCN1Cc2cc(Nc3ncc4cc(C#N)c(=O)n(C5CCCC5)c4n3)ccc2C(C)(C)C1
T = N#Cc1cc2cnc(NC3CCN(S(=O)(=O)C(F)(F)F)CC3)nc2n(C2CCCC2)c1=O
Falling order of pIC50, please. List the labels in the requested order.
P, Q, S, R, T
(P: 8.82, Q: 8.46, S: 8.22, R: 7.92, T: 7.60)

P = CN(C)Cc1c[nH]c2cc(Nc3ncc4cc(C#N)c(=O)n(C5CCCC5)c4n3)ccc12
Q = Cn1ccc(S(=O)(=O)N2CCC(Nc3ncc4cc(C#N)c(=O)n(C5CCCC5)c4n3)CC2)n1
API: POST /compare with P and Q ; response names the item with higher pIC50. Give the label of your selection.
P
(P: 8.70, Q: 8.40)
